# assay_remarks: self-splicing fitness, log relative to wild type (ln ratio); higher = more splicing; Tetrahymena group I intron in knt gene, E. coli kanamycin selection, DiMSum; sequences stand for … in CUCUCU…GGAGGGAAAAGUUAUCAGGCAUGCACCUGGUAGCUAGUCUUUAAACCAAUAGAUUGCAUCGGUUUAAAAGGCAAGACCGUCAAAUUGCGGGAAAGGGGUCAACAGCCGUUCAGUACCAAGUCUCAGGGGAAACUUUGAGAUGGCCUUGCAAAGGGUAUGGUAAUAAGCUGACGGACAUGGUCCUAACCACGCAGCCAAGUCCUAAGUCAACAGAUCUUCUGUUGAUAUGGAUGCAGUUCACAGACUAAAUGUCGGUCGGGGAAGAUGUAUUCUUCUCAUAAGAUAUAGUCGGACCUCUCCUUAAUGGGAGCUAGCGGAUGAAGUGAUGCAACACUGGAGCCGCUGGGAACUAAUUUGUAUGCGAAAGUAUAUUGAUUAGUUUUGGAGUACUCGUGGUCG;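 also: selection with 25 µg/mL kanamycin versus none on LB agar overnight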
# assay_context: 30 °C
outcome_measure: self-splicing fitness (ln)
Give your answer as a number; write no unit.

Reference set (8 entries):
[[record]]
residue_codes = "AUCAAGCAAUAUUACGCAGG"
outcome_measure = "self-splicing fitness (ln)"
recorded_measurement = -2.34

[[record]]
residue_codes = "ACCAAGCAAUAUUACGUGCA"
outcome_measure = "self-splicing fitness (ln)"
recorded_measurement = -0.837

[[record]]
residue_codes = "GGAAAGCAAUAUUACGUUCA"
outcome_measure = "self-splicing fitness (ln)"
recorded_measurement = 0.00884

[[record]]
residue_codes = "UGCCAGCAAUAUUACGGGGU"
outcome_measure = "self-splicing fitness (ln)"
recorded_measurement = -3.57

[[record]]
residue_codes = "GAUUAGCAAUAUUACGGGAC"
outcome_measure = "self-splicing fitness (ln)"
recorded_measurement = -2.53

[[record]]
residue_codes = "GACCAGCAAUAUUACGCUUG"
outcome_measure = "self-splicing fitness (ln)"
recorded_measurement = -0.638

[[record]]
residue_codes = "GGACAGCAAUAUUACGUUCA"
outcome_measure = "self-splicing fitness (ln)"
recorded_measurement = -0.478

[[record]]
residue_codes = "ACCUAGCAAUAUUACGACCU"
outcome_measure = "self-splicing fitness (ln)"
recorded_measurement = -1.26


Fill in: self-splicing fitness (ln) of CCCGAGCAAUAUUACGACUA is ___
-2.29

Again, but for GCUUAGCAAUAUUACGAGUU
-1.62

Again, but for CCCAAGCAAUAUUACGCGCU
-3.79

Again, but for UCGGAGCAAUAUUACGCGCG
-2.02

Again, but for AUUAAGCAAUAUUACGACGG
-2.32

Again, but for ACUGAGCAAUAUUACGUCAC
-3.38

Again, but for CACUAGCAAUAUUACGGCUU
-3.4
